Biological target: membrane LIGHT without residues 81-84 (EL4-NC-LIGHT cells) (human, UniProt O43557 1-240)
Sequence (O43557 other isoform, or with tags, fused parts or gaps): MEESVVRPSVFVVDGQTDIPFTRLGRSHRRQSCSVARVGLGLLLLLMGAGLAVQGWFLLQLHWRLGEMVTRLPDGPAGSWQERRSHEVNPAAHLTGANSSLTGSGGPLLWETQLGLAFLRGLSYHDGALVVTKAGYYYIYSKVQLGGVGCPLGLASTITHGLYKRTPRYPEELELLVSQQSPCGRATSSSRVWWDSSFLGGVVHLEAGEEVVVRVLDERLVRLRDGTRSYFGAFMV
Test: cell-based or functional assay
test readout: IC50, inhibition of IL-8 secretion from HT-29 cells (EL4-NC-LIGHT cells) (pM)
One number for each entry, in pM.

Query (binder): 3D12 (antibody, human IgG4, V domains shown, chimeric: mouse variable domains on human IgG4 HC (S-to-P and L-to-E at 248) and human CL; also called Parental 3D12; 3D12 chimeric) VH: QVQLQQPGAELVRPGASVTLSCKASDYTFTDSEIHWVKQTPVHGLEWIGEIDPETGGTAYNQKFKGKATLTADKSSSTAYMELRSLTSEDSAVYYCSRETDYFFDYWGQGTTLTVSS VL: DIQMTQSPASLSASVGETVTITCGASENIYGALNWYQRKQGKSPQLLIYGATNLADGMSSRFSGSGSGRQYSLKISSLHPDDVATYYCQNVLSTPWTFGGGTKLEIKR ; field requested: IC50, inhibition of IL-8 secretion from HT-29 cells (EL4-NC-LIGHT cells) 100

Proceed to the following item.
Query (binder): 2E08 (antibody, human IgG4, V domains shown, chimeric human IgG4 (S-to-P, L-to-E at 248), human CL; also called Parental 2E08) VH: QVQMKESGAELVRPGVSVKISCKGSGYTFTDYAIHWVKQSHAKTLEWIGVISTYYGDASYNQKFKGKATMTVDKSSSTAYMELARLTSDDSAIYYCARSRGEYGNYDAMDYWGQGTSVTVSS VL: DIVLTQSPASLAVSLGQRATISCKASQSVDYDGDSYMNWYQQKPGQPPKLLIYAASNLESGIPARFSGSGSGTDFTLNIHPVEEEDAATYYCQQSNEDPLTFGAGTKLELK ; field requested: IC50, inhibition of IL-8 secretion from HT-29 cells (EL4-NC-LIGHT cells) 1800
